Listed below: Activity values for each entry.
System: Plasmodium falciparum
test: Antimalarial activity against chloroquine-sensitive Plasmodium falciparum NF54 infected mouse assessed as reduction in parasitemia at 30 mg/kg, po measured on day 3 postinfection relative to control
Format: functional
Set-up: scale not given: the % may be the effect or the level left
recorded.endpoint: Activity (%)

[[record]]
compound = "CC(C)(N)CNC(=O)C[C@H]1CC[C@]2(CC1)OO[C@]1(O2)C2CC3CC(C2)CC1C3"
recorded_endpoint = "Activity"
unit_text = "%"
readout_relation = "="
recorded_measurement = 99.9

[[record]]
compound = "O[C@@H](c1cc(C(F)(F)F)nc2c(C(F)(F)F)cccc12)[C@H]1CCCCN1 (relative stereo) [(S,R)-MEFLOQUINE]"
recorded_endpoint = "Activity"
unit_text = "%"
readout_relation = "="
recorded_measurement = 99.6

[[record]]
compound = "CC(C)(N)CNC(=O)CC1CCC2(CC1)OOC1(OO2)C2CC3CC(C2)CC1C3 (stereo unspecified)"
recorded_endpoint = "Activity"
unit_text = "%"
readout_relation = "="
recorded_measurement = 99.5

[[record]]
compound = "CC(C)(N)CNC(=O)CC1CCC2(CC1)COC1(OO2)C2CC3CC(C2)CC1C3 (stereo unspecified)"
recorded_endpoint = "Activity"
unit_text = "%"
readout_relation = "="
recorded_measurement = 99.1

[[record]]
compound = "C[C@H]1[C@H](OC(=O)CCC(=O)O)O[C@@H]2O[C@@]3(C)CC[C@H]4[C@H](C)CC[C@@H]1[C@@]24OO3 [ARTESUNATE]"
recorded_endpoint = "Activity"
unit_text = "%"
readout_relation = "="
recorded_measurement = 92

[[record]]
compound = "c1cc([C@H]2CC[C@]3(CC2)OO[C@]2(O3)C3CC4CC(C3)CC2C4)ccc1OCCN1CCOCC1"
recorded_endpoint = "Activity"
unit_text = "%"
readout_relation = ">"
recorded_measurement = 99.9


====

Recorded pIC50 values for a group of compounds are listed next.
System: Plasmodium falciparum
test: microbe, parasite or virus in culture
setup.conditions: K1
pIC50: −log10 of the molar value.
recorded.endpoint: pIC50

[[record]]
compound = "c1cc([C@H]2CC[C@@]3(CC2)C[C@@]2(OO3)C3CC4CC(C3)CC2C4)ccc1OCCN1CCOCC1"
measured_on = "Plasmodium falciparum"
recorded_measurement = 6.43

[[record]]
compound = "CC(C)(N)CNC(=O)CC1CCC2(CC1)COC1(OO2)C2CC3CC(C2)CC1C3 (stereo unspecified)"
measured_on = "Plasmodium falciparum"
recorded_measurement = 7.72

[[record]]
compound = "CC(C)(N)CNC(=O)CC1CCC2(CC1)OOC1(OO2)C2CC3CC(C2)CC1C3 (stereo unspecified)"
measured_on = "Plasmodium falciparum"
recorded_measurement = 9.05

[[record]]
compound = "O[C@@H](c1cc(C(F)(F)F)nc2c(C(F)(F)F)cccc12)[C@H]1CCCCN1 (relative stereo) [(S,R)-MEFLOQUINE]"
measured_on = "Plasmodium falciparum"
recorded_measurement = 8.14

[[record]]
compound = "CC(C)(N)CNC(=O)C[C@H]1CC[C@@]2(CC1)C[C@@]1(OO2)C2CC3CC(C2)CC1C3"
measured_on = "Plasmodium falciparum"
recorded_measurement = 6.77

[[record]]
compound = "c1cc([C@H]2CC[C@]3(CC2)OO[C@]2(O3)C3CC4CC(C3)CC2C4)ccc1OCCN1CCOCC1"
measured_on = "Plasmodium falciparum"
recorded_measurement = 8.55


Just for reference, ChEMBL document CHEMBL2321701 is where these values come from.
